# Test system: human ovarian adenocarcinoma (SK-OV-3) cells
# method-summary: Cytotoxicity (MTS proliferation assay) of peptides in SK-OV-3 cells
# Type: cell-based
# measurement-conditions: SK-OV-3; up to / at 50 µM peptide
Peptide text beside a SMILES is read from it. * marks the point of attachment. HOOC(CH2)6CO = O=C(O)CCCCCCC(=O)*; Myristoyl = CCCCCCCCCCCCCC(=O)*
measure-name: cytotoxicity (in words)

[
  {
    "compound": "CCCCCCCCCCCCCC(=O)N[C@@H](Cc1c[nH]cn1)C(=O)N[C@@H](CCCNC(=N)N)C(=O)N[C@@H](Cc1c[nH]cn1)C(=O)N[C@@H](CCCNC(=N)N)C(=O)N[C@@H](Cc1c[nH]cn1)C(=O)N[C@@H](CCCNC(=N)N)C(=O)N[C@@H](Cc1c[nH]cn1)C(=O)N[C@@H](CCCNC(=N)N)C(=O)O [C14-(HR)4] (Myristoyl-HRHRHRHR-OH)",
    "value-measured": "not toxic"
  },
  {
    "compound": "N=C(N)NCCC[C@H](NC(=O)[C@H](Cc1c[nH]cn1)NC(=O)[C@H](CCCNC(=N)N)NC(=O)[C@H](Cc1c[nH]cn1)NC(=O)[C@H](CCCNC(=N)N)NC(=O)[C@H](Cc1c[nH]cn1)NC(=O)[C@H](CCCNC(=N)N)NC(=O)[C@H](Cc1c[nH]cn1)NC(=O)CCCCCCC(=O)O)C(=O)O [C8-(HR)4] ({HOOC(CH2)6CO}-HRHRHRHR-OH)",
    "value-measured": "not toxic"
  }
]

Origin of measurements: paper PMC6100079
